The values you see were collected from patent US20250263490A1.

STUDY_TARGET: T1, recombinant human domain 1-3His6 of the cation-independent mannose-6-phosphate receptor (human, UniProt P11717 41-467)
T1 construct: Biotinylated (NHS-PEG4-biotin) for BLI; Glycosylated; also called hDom1-3His6; hCI-M6PRD1-D3
TEST_NAME: BLI exp 2, dissoc pH 6
Experimental: For each of the 11 anti-CI-M6PR VHHs, a biolayer interferometry (BLI) experiment was performed in which the hDom₁₋₃His₆ was biotinylated and coupled to streptavidin biosensor tips. Afterwards, the tips were incubated with serially diluted VHHs during the association phase and dissociation was performed at pH 7.4. Similarly, dissociation was performed at pH 7.0, pH 6.0 and pH 5.0 as well after regeneration of the biosensor tips. […]
PROPERTY: kon (M⁻¹ s⁻¹)
Could you give me the number in M⁻¹ s⁻¹? Just the number is fine.

Reported kon of anti-CI-M6PR VHH10 (VHH, His6-tagged; made in Pichia pastoris) VHH: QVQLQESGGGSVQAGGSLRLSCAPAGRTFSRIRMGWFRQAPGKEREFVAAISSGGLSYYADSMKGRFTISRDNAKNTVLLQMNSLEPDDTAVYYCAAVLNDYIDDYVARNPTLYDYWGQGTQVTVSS : 39100

Reported kon of anti-CI-M6PR VHH7 (VHH, His6-tagged (Pichia pastoris)) VHH: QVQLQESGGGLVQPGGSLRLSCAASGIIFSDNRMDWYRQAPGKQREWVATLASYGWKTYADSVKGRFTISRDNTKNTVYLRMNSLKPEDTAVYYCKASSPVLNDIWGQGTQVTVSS : 40000

Reported kon of anti-CI-M6PR VHH5 (VHH, His6-tagged; made in Pichia pastoris, later also in E. coli WK6) VHH: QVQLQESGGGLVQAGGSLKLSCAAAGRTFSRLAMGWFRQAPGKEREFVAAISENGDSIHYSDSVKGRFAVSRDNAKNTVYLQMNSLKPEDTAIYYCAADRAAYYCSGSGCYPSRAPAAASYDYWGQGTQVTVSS : 1.7e+06
